target: Hepatocyte growth factor receptor (Homo sapiens, UniProt P08581)
Sequence (P08581 whole entry): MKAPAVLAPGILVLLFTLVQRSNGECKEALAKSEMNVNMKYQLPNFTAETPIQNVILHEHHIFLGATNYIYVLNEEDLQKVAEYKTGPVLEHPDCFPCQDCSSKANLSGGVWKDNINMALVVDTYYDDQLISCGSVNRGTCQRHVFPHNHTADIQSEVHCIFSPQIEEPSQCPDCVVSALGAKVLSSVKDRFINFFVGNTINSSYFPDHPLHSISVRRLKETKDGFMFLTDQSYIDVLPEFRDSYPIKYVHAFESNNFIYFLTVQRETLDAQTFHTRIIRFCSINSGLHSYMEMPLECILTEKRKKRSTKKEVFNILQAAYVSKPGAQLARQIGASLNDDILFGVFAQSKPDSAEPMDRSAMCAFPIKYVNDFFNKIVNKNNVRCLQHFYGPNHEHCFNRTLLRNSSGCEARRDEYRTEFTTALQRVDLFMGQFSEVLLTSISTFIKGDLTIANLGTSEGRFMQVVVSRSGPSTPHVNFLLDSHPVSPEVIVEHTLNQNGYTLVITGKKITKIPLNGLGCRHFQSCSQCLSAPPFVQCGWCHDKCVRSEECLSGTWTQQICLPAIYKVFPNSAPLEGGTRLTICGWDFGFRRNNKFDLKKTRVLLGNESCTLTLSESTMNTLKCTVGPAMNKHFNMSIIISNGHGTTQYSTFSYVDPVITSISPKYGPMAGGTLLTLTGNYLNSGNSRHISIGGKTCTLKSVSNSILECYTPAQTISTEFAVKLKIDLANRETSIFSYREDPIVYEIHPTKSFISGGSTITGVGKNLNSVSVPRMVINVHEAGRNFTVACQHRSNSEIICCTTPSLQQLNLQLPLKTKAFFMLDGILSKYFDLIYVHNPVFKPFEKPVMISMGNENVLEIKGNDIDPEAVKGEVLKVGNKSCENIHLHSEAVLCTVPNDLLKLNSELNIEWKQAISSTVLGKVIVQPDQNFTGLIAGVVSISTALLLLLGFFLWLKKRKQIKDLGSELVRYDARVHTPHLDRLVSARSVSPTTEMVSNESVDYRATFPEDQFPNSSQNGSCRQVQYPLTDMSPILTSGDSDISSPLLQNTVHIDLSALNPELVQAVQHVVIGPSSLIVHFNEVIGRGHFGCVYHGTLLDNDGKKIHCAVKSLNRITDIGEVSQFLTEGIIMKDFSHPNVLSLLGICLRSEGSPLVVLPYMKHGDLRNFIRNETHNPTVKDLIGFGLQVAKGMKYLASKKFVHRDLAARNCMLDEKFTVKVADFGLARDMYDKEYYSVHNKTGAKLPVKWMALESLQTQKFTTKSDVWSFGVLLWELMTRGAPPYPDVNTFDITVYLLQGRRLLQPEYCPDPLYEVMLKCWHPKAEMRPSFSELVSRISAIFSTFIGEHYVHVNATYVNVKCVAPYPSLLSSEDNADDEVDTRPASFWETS
RECORDED ENDPOINT: Kd (nM)
Give bare numbers, in nM.

Which value of Kd has been reported for CN(C[C@@H]1COCCO1)S(=O)(=O)Nc1ccc2ccc3ncc(-c4cnn(C)c4)cc3c(=O)c2c1 [MK-2461] in the records?
27.2

Where do the numbers come from? From ChEMBL document CHEMBL1782045.
